Data provenance is patent US20190105367A1.

# System: A. baumannii A489
# EXPERIMENT DESCRIPTION: MIC without and with sub-inhibitory polymyxin B (Example 4)
# Assay type: cell-based, Acinetobacter baumannii
# CONDITION SET: A. baumannii A489; +[…] PB; 2nd experiment
MEASURED PARAMETER: MIC without PB/MIC + PB

Example entries begin here.
[[record]]
compound = "C[C@H]1COc2c(N3CCN(C)CC3)c(F)cc3c(=O)c(C(=O)O)cn1c23 [Levofloxacin, reference compound]"
measured_parameter = "MIC without PB/MIC + PB"
result = 4

[[record]]
compound = "Cc1c(-c2cc(F)c(N)cc2F)ccn2c(=O)c(C(=O)O)cc(C3CC3)c12"
measured_parameter = "MIC without PB/MIC + PB"
result = "≥128"


// query MIC without PB/MIC + PB value for entry NCC[C@H](O)C(=O)N[C@@H]1C[C@H](N)[C@@H](O[C@H]2O[C@H](CN)[C@@H](O)[C@H](O)[C@H]2O)[C@H](O)[C@H]1O[C@H]1O[C@H](CO)[C@@H](O)[C@H](N)[C@H]1O [Amikacin, reference compound]
≥2

====

# System: E. cloacae 13047
# EXPERIMENT DESCRIPTION: MIC, standard panel of Gram-positive and Gram-negative strains (Example 2)
# Format: cell-based, Enterobacter cloacae
# CONDITION SET: Enterobacter cloacae, 13047; read-out: MIC E. cloacae 13047
MEASURED PARAMETER: MIC
Remember to put the unit after the number in your answer.

Example entries begin here.
[[record]]
input_smiles = "Cc1c(-c2cc(F)c(N)cc2F)ccn2c(=O)c(C(=O)O)cc(C3CC3)c12"
result = "0.25 µg/mL"

[[record]]
input_smiles = "Cc1c(-c2cc(Cl)c(N)c(Cl)c2)ccn2c(=O)c(C(=O)O)cc(C3CC3)c12"
result = "0.5 µg/mL"

[[record]]
input_smiles = "Cc1c(-c2ccc(CN)c(F)c2)ccn2c(=O)c(C(=O)O)cc(C3CC3)c12"
result = "0.06 µg/mL"

[[record]]
input_smiles = "Cc1c(-c2ccc(N)cc2)ccn2c(=O)c(C(=O)O)cc(C3CC3)c12"
result = "0.25 µg/mL"


Please turn your attention to the following entry.
// query MIC value for entry `Cc1c(-c2ccc(CN)cc2)ccn2c(=O)c(C(=O)O)cc(C3CC3)c12`
0.06 µg/mL

====

# System: A. baumannii J2
# EXPERIMENT DESCRIPTION: MIC without and with sub-inhibitory polymyxin B (Example 4)
# Assay type: cell-based, Acinetobacter baumannii
# CONDITION SET: A. baumannii J2; +[…] PB; 2nd experiment
MEASURED PARAMETER: MIC without PB/MIC + PB
One number for each entry.

[[record]]
compound = "NCC[C@H](O)C(=O)N[C@@H]1C[C@H](N)[C@@H](O[C@H]2O[C@H](CN)[C@@H](O)[C@H](O)[C@H]2O)[C@H](O)[C@H]1O[C@H]1O[C@H](CO)[C@@H](O)[C@H](N)[C@H]1O [Amikacin, reference compound]"
measured_parameter = "MIC without PB/MIC + PB"
numeric_result = 16

[[record]]
compound = "Cc1c(-c2ccc(CN)cc2)c(F)cn2c(=O)c(C(=O)O)cc(C3CC3)c12"
measured_parameter = "MIC without PB/MIC + PB"
numeric_result = 32


# per-item lookup of MIC without PB/MIC + PB; items listed below
1. Cc1c(-c2ccc(CN)cc2)ccn2c(=O)c(C(=O)O)cc(C3CC3)c12
2. COc1c(N2C[C@@H]3CCCN[C@@H]3C2)c(F)cc2c(=O)c(C(=O)O)cn(C3CC3)c12
3. Cc1c(-c2ccc(CN)c(F)c2)ccn2c(=O)c(C(=O)O)cc(C3CC3)c12
4. C[C@H]1COc2c(N3CCN(C)CC3)c(F)cc3c(=O)c(C(=O)O)cn1c23 [Levofloxacin, reference compound]

1. 8
2. 4
3. 128
4. 8
